Target desc: KRas G12C (Homo sapiens, UniProt P01116, G12C)
Construct: Biotinylated KRas (corresponding to amino acids 1-169, produced at Accelegan Inc.); biotin (biotinylated); purchased Accelegan Inc
Sequence (P01116 1-169 isoform P01116-2 G12C): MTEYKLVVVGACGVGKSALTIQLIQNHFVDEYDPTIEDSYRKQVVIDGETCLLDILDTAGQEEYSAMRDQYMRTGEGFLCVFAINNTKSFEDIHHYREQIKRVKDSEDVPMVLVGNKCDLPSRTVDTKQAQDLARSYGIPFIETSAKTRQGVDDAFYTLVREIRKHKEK
Protocol summary: KRas binding assay, TR-FRET displacement of Cy5 labelled tracer
Conditions used: 60-minute incubation at room temperature, 1% DMSO, pH 7.5
Quantity measured: IC50 (nM)
Dear colleague, please return just the value in nM, with no unit written.

The cases that follow already have their IC50 on record.
{"Compound": "CCc1c(F)ccc2cc(O)cc(-c3ncc4c(N5CCN(C(=O)n6ccc(C)n6)C(CF)C5)nc(OC[C@@]56CCCN5C[C@H](F)C6)nc4c3F)c12 (stereo partly drawn)", "IC50, nM": 42}
{"Compound": "CC(=O)N(C)C(=O)C1CCN(c2nc(OC[C@@]34CCCN3C[C@H](F)C4)nc3c(F)c(-c4ccc(F)c5sc(N)c(C#N)c45)c(Cl)cc23)CC1 [Example 254]", "IC50, nM": 3}
{"Compound": "CCc1c(F)ccc2cc(O)cc(-c3ncc4c(N5CCCCC(C(=O)n6ccc(C)n6)CC5)nc(OC[C@@]56CCCN5C/C(=C\\F)C6)nc4c3F)c12 (stereo partly drawn)", "IC50, nM": 4}

Exam item: Give the reported IC50 for CCc1c(F)ccc2cc(O)cc(-c3ncc4c(N(C)C(C)CCC(=O)N(C)C(C)=O)nc(OC[C@@]56CCCN5C[C@H](F)C6)nc4c3F)c12 (stereo partly drawn) (system: KRas G12C (Homo sapiens, UniProt P01116, G12C)).
Marked response: 82

Exam item: Give the reported IC50 for CCc1c(F)ccc2cc(O)cc(-c3ncc4c(N5CC6CC(C(=O)n7ccc(C)n7)C6C5)nc(OC[C@@]56CCCN5C[C@H](F)C6)nc4c3F)c12 (stereo partly drawn) (system: KRas G12C (Homo sapiens, UniProt P01116, G12C)).
Marked response: 73

Exam item: Give the reported IC50 for "CN(CCN(C)c1nc(OC[C@@]23CCCN2C[C@H](F)C3)nc2c(F)c(-c3ccc(F)c4sc(N)c(C#N)c34)c(Cl)cc12)C(=O)n1cncn1" (system: KRas G12C (Homo sapiens, UniProt P01116, G12C)).
Marked response: 3

Exam item: Give the reported IC50 for O=C(Oc1ccc(F)c(F)c1)C1CCCN(c2nc(OCC34CCCN3CCC4)nc3c(F)c(-c4cccc5cccc(F)c45)ncc23)CC1 (stereo not drawn) (system: KRas G12C (Homo sapiens, UniProt P01116, G12C)).
Marked response: 2740

Exam item: Give the reported IC50 for "O=C(Oc1c(F)cccc1F)[C@@H]1[C@@H]2CC[C@H]1CN(c1nc(OCC34CCCN3CCC4)nc3c(F)c(-c4cccc5cccc(F)c45)ncc13)C2" (system: KRas G12C (Homo sapiens, UniProt P01116, G12C)).
Marked response: 30500

Exam item: Give the reported IC50 for "O=C(Oc1ccc(F)c(F)c1)[C@H]1CCN(c2nc(OCC34CCCN3CCC4)nc3c(F)c(-c4cccc5cccc(F)c45)ncc23)C[C@H]1O" (system: KRas G12C (Homo sapiens, UniProt P01116, G12C)).
Marked response: 18900

Exam item: Give the reported IC50 for COC(=O)C1CCCN(c2nc(OCC34CCCN3CCC4)nc3c(F)c(-c4cccc5cccc(F)c45)ncc23)CC1 (stereo not drawn) (system: KRas G12C (Homo sapiens, UniProt P01116, G12C)).
Marked response: 65900

Exam item: Give the reported IC50 for CCc1c(F)ccc2cc(O)cc(N3CCc4c(nc(OC[C@@]56CCCN5C[C@H](F)C6)nc4N4CCCCCC(C(=O)n5ccc(C)n5)C4)C3)c12 (stereo partly drawn) (system: KRas G12C (Homo sapiens, UniProt P01116, G12C)).
Marked response: 27
